Source of measurements: patent US20030130493A1

Tested on: mock DNA (empty vector)-transfected CHO cells
Test description: Intracellular calcium mobilization (FLIPR, fluo-3) in mock DNA-transfected CHO cells
Format: cell-based, Chinese hamster
Applied conditions: mean±SEM, n=6, read-out: EC50 of increase in intracellular calcium
Description: In another method, the measurement of intracellular calcium can also be performed on a 96-well (or higher) format and with alternative calcium-sensitive indicators, preferred examples of these are: aequorin, Fluo-3, Fluo-4, Fluo-5, Calcium Green-1, Oregon Green, and 488 BAPTA. […] During the dye loading incubation the compound plate is prepared. […] The data are then analyzed using an excel spreadsheet program.
pEC50: −log10 of the molar value.
Measurement type: pEC50

INSERT INTO assay_data (compound, reading) VALUES
  ('CCCCCCCC/C=C\CCCCCCCC(=O)OCC(O)COP(=O)(O)O (stereo not shown)', 6.46);
